# Experimental target: α-chymotrypsin (Bos taurus, UniProt P00766)
Parameter: IC50

INSERT INTO results (molecule, obs_value) VALUES
  ('O=C(Nc1ccc([N+](=O)[O-])cc1)Nc1ccc([N+](=O)[O-])cc1 [Urchym, N-4-nitrophenyl-N′-4′-nitrophenylurea]', '3.15 µM');
